assay: chemical genetic growth profiling, strain panel (AID 1159580);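 further: tested at 20 µM; growth read once vehicle control cultures reached saturation at 30 °C; 1 = growth at the plate median or of vehicle wells; lower values mean less growth of the strain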; details: S. cerevisiae deletion strains, growth OD, locus YJL168C, strain set2, hits give low values
Screen size: about 5,500 compounds; about 2,000 (36%) were called active. Inconclusive results (about 18%) are left out. The list shows a part of the results.
measurementKind: normalized growth
Note: the reply should be a number with no unit written.

Would you please look over these solved cases?
{"compound": "NCCCCNCCCN", "assayValue": 0.991}
{"compound": "COc1ccc2c(c1)OCC(Cc1ccc(OC)c(O)c1)C2=O (stereo unspecified)", "assayValue": 0.958}
{"compound": "COC1=CC(=O)OC(CCc2ccc(OC)c(OC)c2)C1 (stereo unspecified)", "assayValue": 1}
{"compound": "CC(C)=CC1C(C(=O)OCc2cccc(Oc3ccccc3)c2)C1(C)C (stereo unspecified)", "assayValue": 0.994}
{"compound": "CCCCCCCCCCCC(=O)OCC(COP(=O)(O)OCC(O)COP(=O)(O)OCC(COC(=O)CCCCCCCCCCC)OC(=O)CCCCCCCCCCC)OC(=O)CCCCCCCCCCC (stereo unspecified)", "assayValue": 1}
{"compound": "COc1ccc2c(c1)OCC(Cc1ccc(OC)c(OC(C)=O)c1)C2=O (stereo unspecified)", "assayValue": 0.99}

*Q* So what's the measured normalized growth for this one? FC(F)(F)c1cccc(N2CCNCC2)c1
*A* 0.987

*Q* So what's the measured normalized growth for this one? COc1ccc(CCC(=O)c2c(O)cc(O[C@@H]3O[C@H](CO)C(O)[C@H](O)C3O[C@@H]3O[C@@H](C)[C@H](O)[C@@H](O)[C@H]3O)cc2O)cc1O (stereo partly specified)
*A* 0.978
